Below are IC50 measurements against UniProt:P21589 drawn from the literature.

// solved cases for IC50 follow
1. O=P(O)(O)CSC[C@H]1O[C@@H](n2ncc3c(NCc4ccccc4Cl)nc(Cl)nc32)[C@H](O)[C@@H]1O; ≤ 500 nM
2. O=C(N[C@H]1CC[C@H](NS(=O)(=O)c2cnn(C3CCCC3)c2)CC1)O[C@@H]1CCN(c2cn[nH]c(=O)c2Cl)C1; 1 to 10000 nM
3. CC1(C)CCC[C@@H]1Nc1nc(Cl)nc2c1cnn2[C@@H]1O[C@H](COCP(=O)(O)O)[C@@H](O)[C@H]1O; ≤ 500 nM

The recorded IC50 with UniProt:P21589 for O=C(Nc1ccc(F)cc1)NC1CC2(C1)CC(NC(=O)O[C@@H]1CCN(c3cn[nH]c(=O)c3Cl)C1)C2 (stereo partly shown) was 1 to 10000 nM

The recorded IC50 with UniProt:P21589 for N#Cc1c(N2CC[C@@H](OC(=O)NC3CCCCC3)C2)cnn(CCO)c1=O was 1 to 10000 nM

The recorded IC50 with UniProt:P21589 for O=P(O)(O)[C@@](CO)(Cc1nn[nH]n1)OC[C@H]1O[C@@H](n2ncc3c(NC4CCCC4)nc(CO)nc32)[C@H](O)[C@@H]1O (racemic) was ≤ 100 nM

The recorded IC50 with UniProt:P21589 for CC1CCCC1Nc1nc(Cl)nc2c1cnn2[C@@H]1O[C@H](CS(=O)(=O)CP(=O)(O)O)[C@@H](O)[C@H]1O (stereo partly shown) was ≤ 500 nM

---

Below are IC50 measurements against CD73 (Homo sapiens (Human), UniProt P21589) drawn from the literature.

// solved cases for IC50 follow
1. O=P(O)(O)CP(=O)(O)OC[C@H]1O[C@@H](n2ncc3c(N[C@@H]4CCc5ccccc54)cc(Cl)nc32)[C@H](O)[C@@H]1O; 0.42 nM
2. CCOC(=O)COCC(CO)(OC[C@H]1O[C@@H](c2ccc3c(NC4CCCC4)nc(Cl)nn23)[C@H](O)[C@@H]1O)P(=O)(O)O (stereo partly shown); 1 to 100 nM
3. CN(C[C@H]1O[C@@H](n2ncc3c(NCc4ccccc4Cl)nc(Cl)nc32)[C@H](O)[C@@H]1O)C(=O)CP(=O)(O)O; ≤ 500 nM

The recorded IC50 with CD73 (Homo sapiens (Human), UniProt P21589) for O=C(NC1CCN(c2ncccn2)CC1)O[C@@H]1CCN(c2cn[nH]c(=O)c2Cl)C1 was 1 to 10000 nM

The recorded IC50 with CD73 (Homo sapiens (Human), UniProt P21589) for O=P(O)(O)C(OC[C@H]1O[C@@H](n2ncc3c(NC4CCCC4)nc(Cl)nc32)[C@H](O)[C@@H]1O)C(F)(F)F (stereo partly shown) was 100 to 1000 nM

The recorded IC50 with CD73 (Homo sapiens (Human), UniProt P21589) for CCC(=O)N1CCC(NC(=O)O[C@@H]2CCN(c3cn[nH]c(=O)c3Cl)C2)CC1 was 1 to 10000 nM

The recorded IC50 with CD73 (Homo sapiens (Human), UniProt P21589) for NC(=O)C1(NC(=O)OC2CCCCC2)CCN(c2cn[nH]c(=O)c2Cl)C1 (stereo not shown) was 10000 to 100000 nM
